B1: Azoarcus group I ribozyme (parent)
chain: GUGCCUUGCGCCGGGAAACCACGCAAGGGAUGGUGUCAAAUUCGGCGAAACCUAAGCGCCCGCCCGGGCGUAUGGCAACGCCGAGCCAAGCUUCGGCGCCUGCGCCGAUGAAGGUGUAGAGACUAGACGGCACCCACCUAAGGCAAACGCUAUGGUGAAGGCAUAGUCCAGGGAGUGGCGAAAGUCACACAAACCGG

- Variants of: B1
- Protocol notes: reverse-splicing fitness (ratio to wild type); higher = more active; in vitro selection; Mg2+ level not given
Attribute measured: reverse-splicing fitness
Number only, please.

C82U A145G C169G U176G: 0.00452
C82U A111C A120C C150A C169U U176C: 0.0181
A111U A120G C150U C169A: 0.0593
C82A A111C A120C A145U C169U U176G: 0.00589
C82U A111G A145G C150G C169G U176C: 0.00848

In the following, a different variant is considered.
Problem: Reported reverse-splicing fitness, variant C82G A111U A120U A145G C150A C169A U176G : ____
Result: 0.00334
